Target: Bcr/Abl fusion protein (Homo sapiens)
Sequence (P00519 whole entry, the tested form may be a part): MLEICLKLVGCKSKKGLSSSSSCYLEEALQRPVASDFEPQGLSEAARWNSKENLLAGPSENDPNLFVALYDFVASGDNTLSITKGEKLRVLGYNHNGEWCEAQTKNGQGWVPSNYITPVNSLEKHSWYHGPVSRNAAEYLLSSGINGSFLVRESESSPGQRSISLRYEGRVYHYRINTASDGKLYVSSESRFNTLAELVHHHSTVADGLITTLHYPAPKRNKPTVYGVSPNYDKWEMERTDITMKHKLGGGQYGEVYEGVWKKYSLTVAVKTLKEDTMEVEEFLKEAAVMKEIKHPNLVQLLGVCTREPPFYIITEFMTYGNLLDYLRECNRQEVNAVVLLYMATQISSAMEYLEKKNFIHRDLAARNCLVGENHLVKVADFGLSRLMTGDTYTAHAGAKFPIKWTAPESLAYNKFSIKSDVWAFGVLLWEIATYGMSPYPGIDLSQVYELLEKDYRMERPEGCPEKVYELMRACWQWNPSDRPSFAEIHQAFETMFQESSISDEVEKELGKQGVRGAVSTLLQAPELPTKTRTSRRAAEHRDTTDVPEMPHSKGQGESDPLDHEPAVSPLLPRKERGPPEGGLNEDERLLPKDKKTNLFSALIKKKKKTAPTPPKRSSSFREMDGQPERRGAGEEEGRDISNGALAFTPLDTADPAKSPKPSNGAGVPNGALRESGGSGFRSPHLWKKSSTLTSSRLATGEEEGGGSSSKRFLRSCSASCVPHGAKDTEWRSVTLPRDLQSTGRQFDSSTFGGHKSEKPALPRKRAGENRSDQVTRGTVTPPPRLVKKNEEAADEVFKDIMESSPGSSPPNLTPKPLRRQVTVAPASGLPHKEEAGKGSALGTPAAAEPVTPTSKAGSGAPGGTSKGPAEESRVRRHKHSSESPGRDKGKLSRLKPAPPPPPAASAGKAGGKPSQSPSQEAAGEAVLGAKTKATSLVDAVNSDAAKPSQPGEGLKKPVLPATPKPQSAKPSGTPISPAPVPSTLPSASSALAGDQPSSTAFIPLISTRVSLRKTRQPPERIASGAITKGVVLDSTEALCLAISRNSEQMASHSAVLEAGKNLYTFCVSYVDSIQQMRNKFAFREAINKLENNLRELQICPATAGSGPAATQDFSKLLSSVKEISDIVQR
Sequence (P11274 whole entry, further chain, the tested form may be a part): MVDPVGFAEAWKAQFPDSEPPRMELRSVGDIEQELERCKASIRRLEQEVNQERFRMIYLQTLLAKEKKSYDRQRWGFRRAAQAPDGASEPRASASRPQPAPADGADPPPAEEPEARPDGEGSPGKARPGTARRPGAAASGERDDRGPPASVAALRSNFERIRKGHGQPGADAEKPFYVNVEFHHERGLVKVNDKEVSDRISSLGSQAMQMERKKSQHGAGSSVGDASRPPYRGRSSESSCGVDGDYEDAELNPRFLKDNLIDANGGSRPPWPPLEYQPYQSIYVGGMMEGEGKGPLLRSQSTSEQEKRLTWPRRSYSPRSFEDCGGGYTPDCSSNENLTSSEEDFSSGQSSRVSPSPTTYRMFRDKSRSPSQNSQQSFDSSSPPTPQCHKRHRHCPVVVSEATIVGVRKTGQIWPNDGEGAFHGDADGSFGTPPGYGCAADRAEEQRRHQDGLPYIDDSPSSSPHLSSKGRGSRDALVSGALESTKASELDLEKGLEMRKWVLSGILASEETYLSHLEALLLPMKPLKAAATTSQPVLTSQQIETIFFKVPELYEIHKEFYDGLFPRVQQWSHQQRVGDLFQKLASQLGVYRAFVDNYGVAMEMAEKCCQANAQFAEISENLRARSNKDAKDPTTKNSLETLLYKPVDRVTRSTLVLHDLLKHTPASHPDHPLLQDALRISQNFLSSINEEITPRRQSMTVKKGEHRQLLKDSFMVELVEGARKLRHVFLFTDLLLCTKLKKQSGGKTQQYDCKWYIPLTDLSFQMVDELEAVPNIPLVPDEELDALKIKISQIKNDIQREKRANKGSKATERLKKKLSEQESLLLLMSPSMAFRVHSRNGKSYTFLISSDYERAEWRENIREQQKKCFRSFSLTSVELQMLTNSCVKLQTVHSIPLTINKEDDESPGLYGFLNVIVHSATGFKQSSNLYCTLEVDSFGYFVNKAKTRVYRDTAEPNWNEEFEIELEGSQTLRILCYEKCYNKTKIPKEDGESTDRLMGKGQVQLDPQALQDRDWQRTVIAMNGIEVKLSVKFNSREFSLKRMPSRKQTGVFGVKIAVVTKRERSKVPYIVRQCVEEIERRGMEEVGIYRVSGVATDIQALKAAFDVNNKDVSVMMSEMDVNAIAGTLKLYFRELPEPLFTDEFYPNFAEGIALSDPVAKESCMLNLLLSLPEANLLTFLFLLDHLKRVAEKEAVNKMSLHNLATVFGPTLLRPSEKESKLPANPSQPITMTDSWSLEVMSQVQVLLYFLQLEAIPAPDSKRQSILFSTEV
Experiment: Inhibition of Bcr-Abl (unknown origin) after 60 mins by luminescent kinase assay
MEASURED PARAMETER: IC50 (µM)

[I] COc1cccc(C(=O)N2CCN(C(=O)c3ccc(-c4ccc(C)nc4)cc3)CC2)c1
[II] CN(C)c1cccc(C(=O)N2CCN(C(=O)c3ccc(-c4nccs4)cc3)CC2)c1
[III] O=C(c1ccc(-c2cccnc2)cc1)N1CCN(C(=O)c2cccc(F)c2)CC1
Request: Arrange the 3 molecules by rising IC50, starting with the smallest. Please list the labels according to the requested order.
Response: I, III, II
(I: 0.143 µM, III: 0.276 µM, II: 1.84 µM)
